# Assay Protocol: NCI Yeast Anticancer Drug Screen. Data for the sgs1 mgt1 strain (AID 161);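 further: 0% = growth of cultures given vehicle only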
# Condition: S. cerevisiae sgs1 mgt1 strain, at 50.0 µM, stronger effect = higher value
This is part of a sample that, as a whole, favours compounds with a hit. Of some 79,000 tested, about 15% had one in any assay.
Each entry below lists one item and its recorded growth inhibition value.
Provide only the numeric value, understood in %.

Some entries whose results are on file:
compound=N#CC(C#N)=CNC(=S)Nc1ccc(Cl)c(Cl)c1 endpoint_unit=% recorded_value=47.6
compound=CCCCCOc1ccc(/C=C\C(=O)O)cc1 endpoint_unit=% recorded_value=-11.2
compound=Nc1nc2c(C(=O)N3CCCC3)nnn2c2cccc(Cl)c12 endpoint_unit=% recorded_value=17
compound=COc1ccccc1NC(=O)Oc1ccc(C#N)cc1 endpoint_unit=% recorded_value=15
compound="CCOc1ccc(C2=NN(CC)C(=O)C(C3C(=O)N(c4ccccc4)N=C3C)C2)cc1 (stereo not drawn)" endpoint_unit=% recorded_value=-0.35
compound=C#CCN(CC#C)C(=O)CCCCCCCCC=C endpoint_unit=% recorded_value=97
compound="c1ccc(C2=NOC3C4CCC(C4)C23)cc1 (stereo not drawn)" endpoint_unit=% recorded_value=-28.4
compound=CCCCCCCCCCCCC(CC)(C(=O)OCC)C(=O)OCC endpoint_unit=% recorded_value=13
compound="Cc1cnc(C)c(C(O)c2ccccc2)n1 (stereo not drawn)" endpoint_unit=% recorded_value=-3.7
compound=O=COCCOC=O endpoint_unit=% recorded_value=-23.6

**Query** Which growth inhibition value is on record for NC(N)=NCCCC(O)C(=O)O (stereo not drawn) ?
**Result** -6.85

**Query** Which growth inhibition value is on record for O=C1CCC(N2C(=O)C3C4CCC(CC4)C3C2=O)C(=O)N1 (stereo not drawn) ?
**Result** -14.9

**Query** Which growth inhibition value is on record for O=C(CP(c1ccccc1)c1ccccc1)c1cccc(C(=O)CP(c2ccccc2)c2ccccc2)c1 ?
**Result** -5.05

###

# Assay Protocol: NCI Yeast Anticancer Drug Screen. Data for the mlh1 rad18 strain (AID 175)
# Condition: S. cerevisiae mlh1 rad18 strain growth inhibition; at 50.0 µM; stronger effect = higher value
About 79,000 compounds went through this panel and 15% of them were active in at least one assay; those are over-represented in the sample as a whole.
Each entry below lists one item and its recorded growth inhibition value.
Provide only the numeric value, understood in %.

molecule="O=C1c2ccccc2C(=O)C2CC(c3ccccc3)=CCC12 (stereo not drawn)" recorded_value=0.9
molecule=[O-]c1on[n+]2c1c(Nc1ccc(Cl)cc1)nc1ccccc12 recorded_value=-39.5
molecule="CC(c1ccccc1)N1COc2cc3c(cc2C1)OCN(C(C)c1ccccc1)C3 (stereo not drawn)" recorded_value=-17.4
molecule=COC(=O)c1ccccc1-c1ccccc1C(=O)OC recorded_value=13.7

**Query** Which growth inhibition value is on record for CC(C)=CCC/C(C)=C/CC/C(C)=C/C1CCC(=O)C1(C)C (stereo not drawn) ?
**Result** -8.35

**Query** Which growth inhibition value is on record for COc1ccc(N=N/C(=N/NC(=O)c2ccccc2)c2ccc(N(CCC#N)CCC#N)cc2C)cc1 ?
**Result** -44.5

**Query** Which growth inhibition value is on record for O=C1c2ccccc2C(=O)N1Cl ?
**Result** -5.75

**Query** Which growth inhibition value is on record for C/C=C(\C)C(=O)OCC1CC[N+](C)([O-])C1 (stereo not drawn) ?
**Result** -15.3

**Query** Which growth inhibition value is on record for CCC1=NCCO1 ?
**Result** -11.7
